experimentalTarget: tissue plasminogen activator (t-PA) (Homo sapiens)
Construct: purchased American Diagnostica, Greenwich, Conn
assayNotes: Fibrinolytic protease selectivity, Kass, t-PA chromogenic assay
Assay type: biochemical
assayContext: apparent association constant
Square brackets hold non-standard residues; d marks the D form. Peptide text beside a SMILES is read from it. dPip = O=C(O)[C@H]1CCCCN1; Nleu = CC(C)CNCC(=O)O
Could you please report measured Enzyme Kass t-PA for the items listed next?
Numbers only, in L/mol × 10^6.

Look over these answered cases.
[
  {
    "molecule": "Cl.Cl.N=C(N)NCCC[C@@H](C=O)NC(=O)CN(CCc1ccccc1)C(=O)[C@H]1CCCCN1",
    "Enzyme Kass t-PA (L/mol × 10^6)": 0.009
  },
  {
    "molecule": "CCS(=O)(=O)N[C@H](Cc1ccccc1)C(=O)N(C)CC(=O)N[C@H](C=O)CCCNC(=N)N.Cl.Cl",
    "Enzyme Kass t-PA (L/mol × 10^6)": 1.2
  }
]

# evaluate next
Please give the documented Enzyme Kass t-PA of CC(C)CN(CC(=O)N[C@H](C=O)CCCNC(=N)N)C(=O)[C@H]1CCCCN1.Cl.Cl [Example 5, D--hPro--N(i--Bu)Gly--ArgH.2HCl] (H-[dPip]-[Nleu]-Arg-aldehyde) 0.002

* * *

Kindly supply the reported Enzyme Kass t-PA values for the records listed here.
experimentalTarget: tissue plasminogen activator (t-PA) (Homo sapiens, UniProt P00750)
Construct: purchased American Diagnostica, Greenwich, Conn
Sequence (P00750 36-562): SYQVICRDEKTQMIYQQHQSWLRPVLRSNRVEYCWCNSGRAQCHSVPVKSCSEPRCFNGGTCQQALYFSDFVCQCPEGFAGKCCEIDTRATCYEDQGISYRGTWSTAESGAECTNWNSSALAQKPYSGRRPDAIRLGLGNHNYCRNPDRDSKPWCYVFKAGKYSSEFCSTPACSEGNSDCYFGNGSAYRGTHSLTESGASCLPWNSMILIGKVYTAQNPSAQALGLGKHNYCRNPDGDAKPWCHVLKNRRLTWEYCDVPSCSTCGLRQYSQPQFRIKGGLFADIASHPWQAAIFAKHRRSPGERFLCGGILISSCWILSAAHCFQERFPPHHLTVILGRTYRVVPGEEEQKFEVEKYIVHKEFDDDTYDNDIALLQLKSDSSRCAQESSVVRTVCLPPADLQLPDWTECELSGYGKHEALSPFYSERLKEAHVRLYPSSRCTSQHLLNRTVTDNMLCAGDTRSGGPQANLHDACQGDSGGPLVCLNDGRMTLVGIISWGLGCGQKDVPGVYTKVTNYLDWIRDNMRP
assayNotes: Fibrinolytic protease selectivity, Kass, t-PA chromogenic assay
Assay type: biochemical
assayContext: apparent association constant
Square brackets hold non-standard residues; d marks the D form. Peptide text beside a SMILES is read from it. dPip = O=C(O)[C@H]1CCCCN1; NEtG = CCNCC(=O)O
Numbers only, in L/mol × 10^6.

Below: 5 compounds and their reported Enzyme Kass t-PA.
[
  {
    "compound": "Cl.Cl.N=C(N)NCCC[C@@H](C=O)NC(=O)CN(C(=O)[C@H]1CCCCN1)c1ccccc1 [Example 11, D--hPro--N(Ph)Gly--ArgH.2HCl]",
    "experimentalTarget": "tissue plasminogen activator (t-PA) (Homo sapiens, UniProt P00750)",
    "unitSpec": "L/mol × 10^6",
    "measValue": 0.0039
  },
  {
    "compound": "Cl.Cl.NC(N)=NCCC[C@@H](C=O)NC(=O)CN(CCc1ccccc1)C(=O)[C@H]1CCCN1 [Example 18, D--Pro--N(CH2 CH2 Ph)Gly--ArgH.2HCl]",
    "experimentalTarget": "tissue plasminogen activator (t-PA) (Homo sapiens, UniProt P00750)",
    "unitSpec": "L/mol × 10^6",
    "measValue": 0.001
  },
  {
    "compound": "CNCC(=O)N(CCc1ccccc1)CC(=O)N[C@H](C=O)CCCNC(=N)N.Cl.Cl [Example 17, Sar--N(CH2 CH2 Ph)Gly--ArgH.2HCl]",
    "experimentalTarget": "tissue plasminogen activator (t-PA) (Homo sapiens, UniProt P00750)",
    "unitSpec": "L/mol × 10^6",
    "measValue": 0.001
  },
  {
    "compound": "CCN(CC(=O)N[C@H](C=O)CCCNC(=N)N)C(=O)[C@H]1CCCCN1.Cl.Cl [Example 2] (H-[dPip]-[NEtG]-Arg-aldehyde)",
    "experimentalTarget": "tissue plasminogen activator (t-PA) (Homo sapiens, UniProt P00750)",
    "unitSpec": "L/mol × 10^6",
    "measValue": 0.005
  },
  {
    "compound": "Cl.Cl.N=C(N)NCCC[C@@H](C=O)NC(=O)CN(CCCC(=O)O)C(=O)[C@H]1CCCCN1",
    "experimentalTarget": "tissue plasminogen activator (t-PA) (Homo sapiens, UniProt P00750)",
    "unitSpec": "L/mol × 10^6",
    "measValue": 0.001
  }
]

Now consider a different compound.
For the compound CC(C)N(CC(=O)NC(C=O)CCCNC(=N)N)C(=O)C1CCCCN1.Cl.Cl [Example 4, D--hPro--N(i--Pr)Gly--ArgH.2HCl] , give its measured Enzyme Kass t-PA value. 0.001
